Just for reference, PubChem BioAssay (EPA / NIEHS) is where these values come from.

- target: X-box-binding protein 1 (Homo sapiens) (UniProt P17861)
- Sequence (P17861 whole entry, looked up): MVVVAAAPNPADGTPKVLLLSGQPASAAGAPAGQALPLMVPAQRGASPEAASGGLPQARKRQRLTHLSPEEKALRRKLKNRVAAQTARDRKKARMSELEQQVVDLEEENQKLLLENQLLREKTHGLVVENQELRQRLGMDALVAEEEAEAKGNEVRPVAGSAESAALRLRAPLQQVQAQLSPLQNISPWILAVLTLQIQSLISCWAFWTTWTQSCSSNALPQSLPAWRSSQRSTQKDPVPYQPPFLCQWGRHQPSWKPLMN
- method summary: ATG_Xbp1_CIS: Attagene CIS-FACTORIAL HepG2 Assay for human X-box Binding Protein 1 (XBP1) (AID 2282972)
- assay context: HepG2 XBP1 cis-element reporter, Attagene multiplex; actives raise or lower the signal
Active and inactive are the calls of the source. The calls were made as follows: active = hit-call score of the fitted dose curve at least 0.9, where 1 is the maximum; inactive = score below 0.9.
Labels: active, inactive

Oc1ccccc1O | active
CC(COCC(C)OC(=O)c1ccccc1)OC(=O)c1ccccc1 (stereo not drawn) | inactive
COC(=O)[C@H]1[C@H]2C[C@@H]3c4[nH]c5cc(OC)ccc5c4CCN3C[C@H]2C[C@@H](OC(=O)c2cc(OC)c(OC)c(OC)c2)[C@@H]1OC | inactive

----------
- Read-out: Cytochrome P450 4A22 (Homo sapiens) (UniProt Q5TCH4)
- method summary: LTEA_HepaRG_CYP4A22: Life Technologies and Expression Analysis (LTEA) Assay for Cytochrome P450 4A22 (CYP4A22) using HepaRG (AID 2283495)
- assay context: mRNA level, 48 h; actives raise or lower the signal
Active and inactive are the calls of the source. The calls were made as follows: active = hit-call score of the fitted dose curve at least 0.9, where 1 is the maximum; inactive = score below 0.9.
Labels: class 1 (active), class 0 (inactive)

CSc1ccc(Oc2ccc(S(N)(=O)=O)cc2CN(C)C)cc1C | class 1
CCCCCCC(CCCCCCCCCCC(=O)OCC(COC(C)=O)OC(C)=O)OC(C)=O (configuration not stated) | class 0
Cc1occc(=O)c1O | class 0
CCc1nc(N)nc(N)c1-c1ccc(Cl)cc1 | class 1
CCCCOC(=O)CCCCC(=O)OCCCC | class 0
Oc1ccccc1O | class 0
CN(C)C(=O)NC1(c2ccccc2)CCN(CCC[C@]2(c3ccc(Cl)c(Cl)c3)CCCN(C(=O)c3ccccc3)C2)CC1 | class 1

----------
- method summary: ATG_NF_kB_CIS: Attagene CIS-FACTORIAL HepG2 Assay for human Nuclear Factor Kappa B (NF-kB) (AID 2282991)
- assay context: HepG2 Attagene cis-factorial NF-kB reporter mRNA; actives raise or lower the signal
Calls of active or inactive are those of the source. Rule for the calls: active = hit-call score of the fitted dose curve at least 0.9, where 1 is the maximum; inactive = score below 0.9.
Labels: Y (active), N (inactive)

C=CCc1ccc(OC)c(OC)c1 | N
Oc1ccc(O)cc1 | N
O=C(O)c1[nH]n(-c2ccc(S(=O)(=O)O)cc2)c(=O)c1N=Nc1ccc(S(=O)(=O)O)cc1 | N
CN(C)C(=O)NC1(c2ccccc2)CCN(CCC[C@]2(c3ccc(Cl)c(Cl)c3)CCCN(C(=O)c3ccccc3)C2)CC1 | Y
CC(C)OC(=O)C(C)(C)Oc1ccc(C(=O)c2ccc(Cl)cc2)cc1 | N
CCCCC(CC)COC(=O)CCCCCCCC(=O)OCC(CC)CCCC (stereo unspecified) | N
Cc1cc(SC2=C(O)C[C@@](CCc3ccc(N)cc3)(C(C)C)OC2=O)c(C(C)(C)C)cc1CO | N
CSc1ccc(Oc2ccc(S(N)(=O)=O)cc2CN(C)C)cc1C | N
O=[Si]=O | N
CC(=O)S[C@H](C(=O)N[C@H]1Cc2ccccc2[C@H]2CCC[C@@H](C(=O)O)N2C1=O)C(C)C | N
Cc1cc(Cc2ccc(N)c(C)c2)ccc1N | N
CCOCCOCCO | N
CCCCc1nc2cccnc2n1Cc1ccc(-c2ccccc2-c2nnn[nH]2)cc1 | N
Cc1ccc(C(C)(C)C)c(O)c1 | Y
CCCCCCC(C=O)=Cc1ccccc1 | N
CC(C)c1cccc(C(C)C)c1 | N
